assay notes: in vitro
measurement context: African green monkey, TC50
Record form. Attribute: CC50 at 2 day. Fill in for each entry.

Some solved entries appear below for comparison.
compound="COc1cccc(CN2CCNC(=O)c3sc4ccc([N+](=O)[O-])cc4c32)c1 [V]" readout_type="CC50 at 2 day" result="1.3 µM"
compound="C=C(Cl)CN1CCNC(=O)c2sc3ccc(OC)cc3c21 [MM3]" readout_type="CC50 at 2 day" result="3 µM"
compound="COc1ccc2sc3c(c2c1)NCCNC3=O [B]" readout_type="CC50 at 2 day" result="4.5 µM"
compound="C=CCN1CCNC(=O)c2sc3ccc([N+](=O)[O-])cc3c21 [U]" readout_type="CC50 at 2 day" result="8.1 µM"
compound="COc1ccc2sc3c(c2c1)N(Cc1ccccc1C)CCNC3=O [WW3]" readout_type="CC50 at 2 day" result="10.2 µM"

Field: next compound
For O=C1NCCNc2c1ccc1cnccc21 [F] the compound record lists CC50 at 2 day as 1.7 µM

====

Kindly supply the reported half-life at 30 μM values for the records listed here.
assay notes: Metabolic stability, in vitro half-life in human liver microsomes
Type: in vitro ADME
measurement context: liver microsomes (pooled), 30 μM compound, 0.5 mg/mL pooled microsomal protein, 1.0 mM NADPH, 37° C., pH 7.4, read-out: t½ (min) Human Liver Microsome Preparation

# example entries with known answers
input_smiles=CCN1CCNC(=O)c2oc3ccc(OC)cc3c21 readout_type="half-life at 30 μM" result="200 min"
input_smiles=COc1cccc(CN2CCNC(=O)c3ccc4cnccc4c32)c1 readout_type="half-life at 30 μM" result="> 200 min"

Return reported half-life at 30 μM values for all items listed beneath this line.
1. CCOc1ccc2sc3c(c2c1)NCC(C)(C)NC3=O
2. O=C1NCCNc2c1ccc1cnccc21
3. COc1ccc2sc3c(c2c1)NCCNC3=O
4. COc1ccc(CN2CC(C)(C)NC(=O)c3sc4ccc(OC)cc4c32)cc1

Reply:
1: 133 min; 2: > 200 min; 3: 66 min; 4: 150 min

====

For each record, write down the corresponding CC50.
Test system: Vero cells
measurement context: African green monkey, 2 day
Give bare numbers, in µM.

molecule="COc1cccc(CN2CC(C)NC(=O)c3sc4ccc(OC)cc4c32)c1 (centres unmarked) [O]" readout_number=18

Measured on Vero cells, COc1cccc(CN2CC(C)NC(=O)c3sc4ccc(OC)cc4c32)c1 (centres unmarked) [EE2] has a documented CC50 of 3.4

====

assay notes: in vitro
measurement context: African green monkey, TC50
readout type: CC50 at 2 day
Output should be the measured figure followed by the unit it is expressed in.

molecule="C=C(C)CN1CCNC(=O)c2sc3ccc(F)cc3c21 [CC5]" result="18.5 µM"
molecule="C=C(C)CN1CCNC(=O)c2sc3ccc([N+](=O)[O-])cc3c21 [Q]" result="6 µM"
molecule="CN1CCNC(=O)c2ccc3cnccc3c21 [GG4]" result="11.5 µM"
molecule="COc1ccc2sc3c(c2c1)N(Cc1ccc(C#N)cc1)CCN(C)C3=O [AA4]" result="100 µM"
molecule="COc1cccc(CN2CCNC(=O)c3sc4ccc(OC)cc4c32)c1 [C]" result="10 µM"

Could you report CC50 at 2 day for every entry in the following list?
1. COc1ccc2oc3c(c2c1)N(CCC(C)C)CCNC3=O [YY5]
2. CCCN1CCNC(=O)c2sc3ccc(OCC)cc3c21 [D]
3. CCCN1CC(C)(C)NC(=O)c2sc3ccc(OC)cc3c21 [TT]
4. COc1ccc2sc3c(c2c1)N(Cc1ccc([N+](=O)[O-])cc1)CCNC3=O [SS3]
5. COc1ccc2sc3c(c2c1)NC(Cc1ccccc1)CNC3=O (centres unmarked) [PP2]

Reply:
1: 10 µM; 2: 100 µM; 3: 0.4 µM; 4: 83 µM; 5: 1.1 µM

For this molecule ( CCCCN1CCNC(=O)c2sc3ccc([N+](=O)[O-])cc3c21 [DD] ), measured CC50 at 2 day is 12.9 µM
